B1: INTS3 (parent)
chain: FHPIKETVVEEPVDITPYLDQLDE

- Variants of: B1
- ASSAY NOTES: protein stability index of a GFP-peptide fusion (GPS, HEK-293T) (PSI 1-6); higher = more stable;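 further: lentivirally expressed fusions sorted by FACS into six bins by GFP to DsRed ratio, PSI derived from sequencing read proportions per bin multiplied by bin number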
- ASSAY SETUP: c terminus: a fixed tail appended
The label depends only on protein stability index: Criterion met if it is at least 3, Criterion not met if it is smaller.

Observe how each entry below is paired with its result.
H2Y :: Criterion met
V8P :: Criterion met
V8F :: Criterion not met

Moving on to another variant below.
Evaluate I15F : protein stability index at minimum 3?
Criterion not met
